Field: CLint scaled. Provide a value for each of the molecules that follow.
- procedureDetails: Metabolic stability in rat liver microsomes assessed as intrinsic clearance
- Assay type: ADME, Microsome
- particulars: read-out: CLH

Some molecules with known CLint scaled results, for comparison:
smilescode=C=CC(=O)N(C)CCOc1c(-c2ccc(CN3CCN(CC(C)C)CC3=O)c(C)c2)ccnc1N val="793 mL/min/kg"
smilescode=C=CC(=O)N(C)CCOc1c(N)ncnc1-c1cc(F)cc(NC(=O)c2ccc(C3CC3)cc2F)c1C val="97 mL/min/kg"

Report CLint scaled for every entry below.
1. C=CC(=O)N(C)CCOc1cncnc1-c1ccc(CN2CCN(CC(C)C)CC2=O)c(C)c1
2. Cc1cc(-c2ccnc(Nc3cnn(C)c3)n2)ccc1CN1CCN(CC(C)(C)C)CC1=O
3. C=CC(=O)N(C)CCOc1cnccc1-c1ccc(CN2CCN(CCC)CC2=O)c(C)c1

# output
1: 2000 mL/min/kg; 2: 493 mL/min/kg; 3: 1540 mL/min/kg
